TARGET: UniProt Q9Y5Y4
METHOD: Human CRTH2 receptor binding assay (Assay 2)
CONDITION_NOTES: binding to puromycin-resistant CRTH2 L1.2 transfectants
pKd: −log10 of the molar value.

| COMPOUND | pKd |
| --- | --- |
| CCCCC[C@H](O)/C=C/[C@H]1C(=O)C[C@H](O)[C@@H]1C/C=C\CCCC(=O)O [[^3H]-labeled PGD2] | 8.20 |

* * *

TARGET: human CRTH2 (Homo sapiens, UniProt Q9Y5Y4)
Construct: expressed in transfected cells
Sequence (Q9Y5Y4 1-395): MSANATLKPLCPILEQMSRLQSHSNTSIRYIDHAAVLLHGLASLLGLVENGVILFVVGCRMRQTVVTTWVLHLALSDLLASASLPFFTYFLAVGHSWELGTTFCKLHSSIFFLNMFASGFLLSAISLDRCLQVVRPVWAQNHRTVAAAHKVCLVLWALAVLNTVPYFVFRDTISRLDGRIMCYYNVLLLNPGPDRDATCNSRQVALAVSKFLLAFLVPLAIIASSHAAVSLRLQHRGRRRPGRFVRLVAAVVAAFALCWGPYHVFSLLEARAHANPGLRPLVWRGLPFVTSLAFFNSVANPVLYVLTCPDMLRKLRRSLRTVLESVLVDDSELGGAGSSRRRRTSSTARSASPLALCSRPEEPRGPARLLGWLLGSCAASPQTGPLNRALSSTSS
METHOD: Measurement of Ca2+ mobilization in the human CRTH2-transfected L1.2 cell line (Assay 1)
Format: cell-based
CONDITION_NOTES: PGD2-induced Ca2+ mobilization, CRTH2-transfected L1.2 cells; compounds at purity of about 40 to 90%; read-out: In vitro activity grade
pIC50: −log10 of the molar value.
Overview of recorded pIC50 for various compounds

| SMILES_INPUT | pIC50 |
| --- | --- |
| O=C(O)Cc1cnc(Cc2ccc(NC(=O)c3ccc(Cl)c(Cl)c3)cc2)n2ccnc12 | 6.30 to 7.00 |
| O=C(O)Cc1c(Cl)nc(Cc2ccc(NC(=O)c3ccc(C(F)(F)F)cc3)cc2)n2ccnc12 | 7.00 to 8.00 |
| O=C(O)Cc1cnc(Cc2ccc(NC(=O)c3ccc(C(F)(F)F)cc3)cc2)n2ccnc12 | 7.00 to 8.00 |

* * *

TARGET: human CRTH2 (Homo sapiens, UniProt Q9Y5Y4)
Construct: expressed in transfected cells
METHOD: Measurement of Ca2+ mobilization in the human CRTH2-transfected L1.2 cell line (Assay 1)
Format: cell-based
CONDITION_NOTES: PGD2-induced Ca2+ mobilization, CRTH2-transfected L1.2 cells; compounds at purity of about 40 to 90%; read-out: Activity class
pIC50: −log10 of the molar value.
PROPERTY: pIC50

| COMPOUND | TARGET | PROPERTY | TEST_RESULT |
| --- | --- | --- | --- |
| O=C(O)Cc1c(Cl)nc(Cc2ccc(NC(=O)/C=C/c3ccccc3)cc2)n2ccnc12 [Example 1-4] | human CRTH2 (Homo sapiens, UniProt Q9Y5Y4) | pIC50 | > 8.00 |
| O=C(O)Cc1c(Cl)nc(Cc2ccc(NC(=O)c3ccc(Cl)c(Cl)c3)cc2)n2ccnc12 [Example 1-2] | human CRTH2 (Homo sapiens, UniProt Q9Y5Y4) | pIC50 | > 8.00 |
| O=C(O)Cc1c(Cl)nc(Cc2ccc(NC(=O)/C=C/c3ccc(Cl)cc3)cc2)n2ccnc12 [Example 1-5] | human CRTH2 (Homo sapiens, UniProt Q9Y5Y4) | pIC50 | 7.00 to 8.00 |
| O=C(O)Cc1c(Cl)nc(Cc2ccc(NC(=O)c3ccc4ccccc4c3)cc2)n2ccnc12 [Example 1-3] | human CRTH2 (Homo sapiens, UniProt Q9Y5Y4) | pIC50 | 7.00 to 8.00 |
